The reported measurements were obtained from patent US20190177366A1.

ASSAYED_SYSTEM: T1, His-tagged, full-length PCSK9 (human, UniProt Q8NBP7 31-152; Q8NBP7 153-692)
T1 construct: Target protein of the PCSK9/EGF(A) TR-FRET assay (10 nM); also called His-PCSK9
T1 sequence (Q8NBP7 31-152, chain 1 of 2): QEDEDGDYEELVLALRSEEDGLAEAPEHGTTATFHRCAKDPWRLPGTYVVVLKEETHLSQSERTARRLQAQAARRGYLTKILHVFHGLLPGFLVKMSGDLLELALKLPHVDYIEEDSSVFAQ
T1 sequence (Q8NBP7 other isoform, or with tags, fused parts or gaps, chain 2 of 2): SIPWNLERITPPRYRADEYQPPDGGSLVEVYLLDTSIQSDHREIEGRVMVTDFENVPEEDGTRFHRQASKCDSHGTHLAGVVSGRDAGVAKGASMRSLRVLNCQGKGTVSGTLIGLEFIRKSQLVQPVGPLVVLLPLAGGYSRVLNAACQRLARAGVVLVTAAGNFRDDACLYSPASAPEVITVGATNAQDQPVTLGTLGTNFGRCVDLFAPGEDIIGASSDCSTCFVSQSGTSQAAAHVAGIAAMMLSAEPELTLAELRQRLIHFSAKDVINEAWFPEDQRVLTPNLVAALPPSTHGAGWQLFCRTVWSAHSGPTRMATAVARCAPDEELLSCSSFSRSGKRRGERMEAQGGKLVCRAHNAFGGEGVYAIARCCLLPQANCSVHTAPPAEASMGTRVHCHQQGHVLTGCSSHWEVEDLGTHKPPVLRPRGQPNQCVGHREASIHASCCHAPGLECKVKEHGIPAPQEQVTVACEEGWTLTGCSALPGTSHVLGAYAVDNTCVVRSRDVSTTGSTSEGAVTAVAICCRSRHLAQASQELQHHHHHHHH
ASSAY_DETAILS: TR-FRET competition, His-PCSK9; competitor EGF(A)-Fc
pIC50: −log10 of the molar value.
PARAMETER: pIC50

[ask] Entry Ac-SGDLMPWNLVRIGLLR-NH2 [Compound 122] : reported pIC50 = ?
[reply] ≤ 4.30
